assayed target: T1, Rat HER3: CD33-[Rat HER3, residues 20-643]-TAG (rat, UniProt Q62799 20-643)
T1 construct: also called ra HER3-Tag; not shown: C-terminal TAG (e.g., FLAG TAG)
T1 sequence (Q62799 20-643): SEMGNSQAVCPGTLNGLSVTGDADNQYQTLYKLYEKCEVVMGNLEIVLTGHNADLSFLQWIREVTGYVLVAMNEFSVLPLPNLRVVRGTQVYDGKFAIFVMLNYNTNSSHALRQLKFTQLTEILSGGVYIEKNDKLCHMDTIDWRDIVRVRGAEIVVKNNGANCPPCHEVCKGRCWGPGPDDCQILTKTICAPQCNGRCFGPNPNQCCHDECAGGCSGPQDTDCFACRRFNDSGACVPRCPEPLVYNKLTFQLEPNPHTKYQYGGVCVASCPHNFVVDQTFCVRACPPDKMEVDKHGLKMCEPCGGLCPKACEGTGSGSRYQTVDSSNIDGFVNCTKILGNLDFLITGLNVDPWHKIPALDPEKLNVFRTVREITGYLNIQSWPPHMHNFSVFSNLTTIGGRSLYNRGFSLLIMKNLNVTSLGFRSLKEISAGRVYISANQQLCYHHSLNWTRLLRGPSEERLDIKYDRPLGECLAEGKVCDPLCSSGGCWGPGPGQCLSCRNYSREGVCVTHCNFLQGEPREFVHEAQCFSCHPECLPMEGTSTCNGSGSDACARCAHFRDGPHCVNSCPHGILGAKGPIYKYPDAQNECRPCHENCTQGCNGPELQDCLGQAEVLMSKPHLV
assay remarks: SET, IgG vs soluble HER3-Tag
Items are presented alongside their recorded pKd.
To interpret pKd, take it as minus log10 of a concentration measured in moles per litre.

{"columns": ["binder", "numeric readout"],
 "data": [
  ["MOR12509 (antibody, human IgG1, kappa, V domains shown, tested as IgG) VH: QVQLVQSGAEVKKPGESLKISCKGSGYSFTNSWVAWVRQMPGKGLEWMGIIYPGNSDTIYSPSFQGQVTISADKSISTAYLQWSSLKASDTAMYYCARVHIIQPPSAWSYNAMDVWGQGTLVTVSS VL: DIQMTQSPSSLSASVGDRVTITCRASQSITHYLNWYQQKPGKAPKLLIFGASNLQSGVPSRFSGSGSGTDFTLTISSLQPEDFATYYCQQAFVDPSTTFGQGTKVEIKR", 9.32]
]}

Which measured pKd value corresponds to MOR14536 (antibody, human IgG1, kappa, V domains shown, tested as IgG) VH: EVQLVQSGAEVKKPGESLKISCKGSGYSFSNYWIAWVRQMPGKGLEWMGIIYPGQSDTIYSPSFQGQVTISADKSISTAYLQWSSLKASDTAMYYCARVHIIQPPSAWSYNAMDVWGQGTLVTVSS VL: DIQMTQSPSSLSASVGDRVTITCRASQSISTYLNWYQQKPGKAPKLLIYGASNLQSGVPSRFSGSGSGTDFTLTISSLQPEDFATYYCQQSITELFTFGQGTKVEIKR ?
10.19
